Entries and their measured Field Bindweed plant response rating follow.
# Test system: field bindweed
# ASSAY COMMENT: Test E preemergence
# Assay type: in vivo, Convolvulus arvensis
# RUN PARAMETERS: 62 g ai/ha, scale 0 to 100 (0 no effect, 100 complete control)
Hey, just send me the number, nothing else.

Worked cases, answers included:
- FCc1cccc(Oc2ncc(Cl)cn2)c1-n1cc(Cl)cn1: 0
- N#Cc1cccc(Oc2ncc(Br)cn2)c1-n1cc(I)cn1: 0
- Clc1cnc(Oc2ccccc2-n2cc(Br)cn2)nc1: 0

Here's the next entry for you.
Given the entry FC(F)(F)c1cnn(-c2ccccc2Oc2ncc(Br)cn2)c1 , report its measured Field Bindweed plant response rating.
30

###

Entries and their measured Plant response rating, Pigweed follow.
# Tested on: pigweed
# ASSAY COMMENT: Test A preemergence
# Type: in vivo, Amaranthus retroflexus
# RUN PARAMETERS: 125 g ai/ha, 0 to 100 scale where 0 is no effect and 100 is complete control
Hey, just send me the number, nothing else.

Worked cases, answers included:
- N#Cc1cccc(Oc2ncc(F)cn2)c1-n1cc(Cl)cn1 [Compound 73]: 100
- FC(F)(F)c1cccc(Oc2ncc(Cl)cn2)c1-n1cc(Br)cn1 [Compound 64]: 90
- FC(F)(F)c1ccn(-c2ccccc2Sc2ncc(Cl)cn2)n1 [Compound 28]: 0

Return Plant response rating, Pigweed measured with pigweed given this compound: N#Cc1cccc(Oc2ncc(F)cn2)c1-n1cc(I)cn1 [Compound 86]
100

Return Plant response rating, Pigweed measured with pigweed given this compound: COc1cnn(-c2c(F)cccc2Oc2ncc(Cl)cn2)c1 [Compound 121]
90

###

Entries and their measured pest or weed control at 250 g/ha follow.
# System: barnyardgrass
# ASSAY COMMENT: Test B flooded paddy test
# Assay type: in vivo, Echinochloa crus-galli
# RUN PARAMETERS: Echinochloa crus-galli; Flood, 250 g ai/ha; 0 to 100 scale where 0 is no effect and 100 is complete control; read-out: Plant response rating, Barnyardgrass
# Experimental: Plant species in the flooded paddy test selected from rice (Oryza sativa), sedge, umbrella (small-flower umbrella sedge, Cyperus difformis), (Heteranthera limosa), and barnyardgrass (Echinochloa crus-galli) were grown to the 2-leaf stage for testing. […] Treated plants and controls were maintained in a greenhouse for 13 to 15 days, after which time all species were compared to controls and visually evaluated. […]
Give the number; % is assumed, so skip it.

Worked cases, answers included:
* Fc1cccc(Oc2ncc(Cl)cn2)c1-n1cc(Br)cn1 | 0
* FC(F)(F)Sc1cnn(-c2ccccc2Oc2ncc(Cl)cn2)c1 | 0
* FC(F)(F)c1cn(-c2ccccc2Oc2ncc(Cl)cn2)nn1 | 60
* Clc1cnc(Oc2ccccc2-n2cc(Br)cn2)nc1 | 30

Here's the next entry for you.
Given the entry N#Cc1cccc(Oc2ncc(Cl)cn2)c1-n1cnc(C(F)(F)F)c1 , report its measured pest or weed control at 250 g/ha.
40

###

# Tested on: giant foxtail
# ASSAY COMMENT: Test C preemergence
# Format: in vivo, Setaria faberii
# RUN PARAMETERS: Setaria faberi, pre-emergence; Preemergence, 31 g ai/ha; scale 0 to 100, 0 no effect, 100 complete control; read-out: Plant response rating, Foxtail, Giant
ENDPOINT: pest or weed control at 31 g/ha (%)
Give the number; % is assumed, so skip it.

Worked cases, answers included:
• FC(F)(F)COc1cnn(-c2ccccc2Oc2ncc(Cl)cn2)c1 [Compound 138] = 90
• FC(F)(F)Sc1cnn(-c2ccccc2Oc2ncc(Cl)cn2)c1 [Compound 132] = 55
• N#Cc1cccc(Oc2ncc(Cl)cn2)c1-n1cc(C(F)(F)F)cn1 [Compound 58] = 100

Here's the next entry for you.
Given the entry N#Cc1cccc(Oc2ncc(Br)cn2)c1-n1cc(C(F)(F)F)cn1 [Compound 59] , report its measured pest or weed control at 31 g/ha.
95
